Quick reference: selectivity ratio of the listed items.
assay: Selectivity index, ratio of CC50 for human MT4 cells to IC50 for HIV NL4-3 infected in human MT4 cells; type: toxicity, cell-based; settings: read-out: Ratio CC50/IC50
value type: selectivity ratio

>>> df
                                 cpd_smiles  result_value
0  CCCCCCCCCCCCCC(=O)O[C@H]1C(C)=C[C@]23C(=O)[C@@H](C=C(CO)[C@@H](O)[C@]12O)[C@H]1[C@@H](C[C@H]3C)C1(C)C         11300
1  CCCC\C=C/C=C\C=C\C(=O)O[C@H]1C(C)=C[C@]23C(=O)[C@@H](C=C(COC(C)=O)[C@@H](O)[C@]12O)[C@H]1[C@@H](C[C@H]3C)C1(C)C        > 96.2
2  CCCCC/C=C/C=C/C(=O)O[C@@H]1C(COC(C)=O)=C[C@@H]2C(=O)[C@]3(C=C(C)[C@H](O)[C@@]13O)[C@H](C)C[C@@H]1[C@H]2C1(C)C         13000
3  CCCCCCCCCC(=O)OCC1=C[C@@H]2C(=O)[C@]3(C=C(C)[C@H](O)[C@@]3(O)[C@@H]1O)[C@H](C)C[C@@H]1[C@H]2C1(C)C          5980
4  CCCCC/C=C/C=C/C(=O)O[C@H]1C(C)=C[C@]23C(=O)[C@@H](C=C(COC(C)=O)[C@@H](O)[C@]12O)[C@H]1[C@@H](C[C@H]3C)C1(C)C         > 185
5  Cc1cn([C@H]2C[C@H](N=[N+]=[N-])[C@@H](CO)O2)c(=O)[nH]c1=O          > 20
